Source listed as PubChem BioAssay.

test: RAM signaling pathway blockade in yeast – S. cerevisiae, Pdr1DBD-CYC8 efflux-inhibited sensitized strain, primary screen (AID 1298);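 further: 0% = DMSO untreated cells without growth and 100% = 10 µM 1-NA-PP1 full growth; higher means more yeast growth rescued from 5-FOA killing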; details: S. cerevisiae cbk1-as DSE1-URA3 strain, 5-FOA growth OD615, 2 d; at 50 µM; hits give high values
I'd appreciate it if you could supply RAM network inhibition values for the items below.
One number for each entry, in %.

Worked cases, RAM network inhibition given:
• Cc1oc2c(c1C(=O)NC(Cc1c[nH]c3ccccc13)C(=O)O)CCCC2 (stereo unspecified) = 0.1
• CC1COC2C(O1)N(S(C)(=O)=O)CCN2S(C)(=O)=O (stereo unspecified) = 2.6
• COc1cc(C(=O)Nc2nnc(C)s2)cc(OC)c1OC = 2.16

Please give RAM network inhibition, item by item, for the list that follows.
1. COCCCN1Cc2cccc(C(=O)O)c2C1=O
2. O=C(CCc1nc2ccccc2[nH]1)N1CCN(C(=O)c2ccco2)CC1
3. Cn1c(C(=O)Nc2ccc3c(c2)OCCO3)cc2c(=O)n(C)c3ccccc3c21
4. CCCCOCCCNC(=O)Cc1cccs1
5. O=C(NC1CCCCCCC1)c1ccc(CNc2c(N3CCOCC3)c(=O)c2=O)cc1
6. O=C(CSc1nnc(-c2ccccn2)n1Cc1ccco1)c1ccc(Cl)cc1

Reply:
1. 7.02
2. 1.88
3. 4.95
4. 5.12
5. 0.92
6. 4.4

Please give RAM network inhibition, item by item, for the list that follows.
1. CCN(CC)S(=O)(=O)c1ccc(-c2nnc3sc4cccc(C)c4n23)cc1
2. Cn1c(NCc2ccccc2Cl)nc2ccccc21

Reply:
3.69
1.78

---

assay: growth suppression of PTEN-deleted HCT116, pilot screen, cell-based, HCT116 clonal line, CellTiter-Glo (AID 824); conditions: 60 h, at 10 µM, hits give low values;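 further: 0% = 20 µM Hyamine control and 100% = vehicle cell control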
Inconclusive results are not listed.
OBSERVABLE: viability (%)
One number for each entry, in %.

Please give viability, item by item, for the list that follows.
1. COc1ccc(C(=O)NCC(c2cccnc2)N2CCN(c3ccccc3)CC2)cc1OC (stereo not given)
2. CCn1c(=O)cc(OCC(=O)Nc2ccccc2C#N)c2ccccc21
3. CCOCCCNC(=O)c1cc2c(-c3ccc(Cl)cc3)nn(C)c2s1

Reply:
1. 93.1
2. 94.7
3. 56.8

Please give viability, item by item, for the list that follows.
1. O=C1NCCCC1C(=O)N1CCN(C(c2ccccc2)c2ccccc2)CC1 (stereo not given)
2. CCOC(=O)c1ccc(N2CSC3=C(C#N)C(c4ccc(OC)cc4OC)CC(=O)N3C2)cc1 (stereo not given)
3. CCC(CC)c1nnc(NC(=O)c2c(-c3ccccc3)noc2C)s1
4. CCOc1ccccc1NC(=O)CN(c1cc(C)cc(C)c1)S(=O)(=O)c1c(C)noc1C
5. CCCOC(=O)C1=C(C)NC2=C(C(=O)C(C(=O)OC)C(C)C2)C1c1ccc(N(CC)CC)cc1 (stereo not given)
6. Cc1ccc(NC(=O)C2CCCN2S(=O)(=O)c2ccc3c(c2)CCC(=O)N3)cc1Cl (stereo not given)
7. CCN1CCN(CCNC(=O)CS(=O)(=O)Cc2nc(-c3ccc(C)cc3)oc2C)CC1

Reply:
1. 94.3
2. 93.2
3. 93.9
4. 95.1
5. 56.8
6. 85.8
7. 93.7

---

assay: growth suppression of PTEN-deleted HCT116, pilot screen, cell-based, HCT116 clonal line, CellTiter-Glo (AID 824); conditions: 60 h, at 10 µM, hits give low values;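 further: 0% = 20 µM Hyamine control and 100% = vehicle cell control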
Results filed as inconclusive are left out.
API: label(entry) gives Yes if the entry's viability is strictly smaller than 90%; on equality or larger values it gives No.

* N#Cc1c(NC(=O)c2cc(C3CC3)on2)sc2c1CCC2 | Yes
* CC1CC(C)CN(c2nc3c(c(=O)[nH]c(=O)n3C)n2CCSc2nc3ccccc3o2)C1 (stereo not given) | No
* CC(C)NC(=O)c1cc2c(-c3ccc(Cl)cc3)nn(C)c2s1 | Yes
* O=C(Nc1cnc2ccccc2c1)c1cccnc1 | No
* Cn1cccc1Cc1nnc(SCC(=O)NCCc2ccccc2)n1-c1ccc(F)cc1 | No
* COc1ccccc1CC(=O)N1CCN(c2cccc(C(F)(F)F)c2)CC1 | Yes
* COc1ccc(C2N(c3cc(Cl)ccc3OC)C(=O)C3CCCN32)cc1OC (stereo not given) | No
* COc1ccccc1NC(=O)CSc1nnc(C)o1 | No

Ask: Find out if reported viability for CC12C(=O)N(c3cccc4cccnc34)C(=O)C1C1C=CC2C1 (stereo not given) is less than 90%
Reply: No

Ask: Queued: CC(=O)c1cccc(NC(=O)c2cc3ccccn3n2)c1
Reply: No

Ask: Queued: COc1ccc(Cc2nc(-c3ccc(-n4cccc4)cc3)no2)cc1OC
Reply: Yes

Ask: Queued: Cc1ccc(C(=O)c2ccccc2C(=O)O)c(O)c1
Reply: No

Ask: Queued: CCOC(=O)c1[nH]c2c(c1C)C(=O)CC(c1ccc(N(C)C)cc1)C2 (stereo not given)
Reply: Yes

Ask: Queued: Cc1ccccc1NC(=O)CC1SC(=NC2CCCCC2)NC1=O (stereo not given)
Reply: No

Ask: Queued: CC1(C)Cc2ccccc2-c2nc(NCCO)n(-c3ccccc3)c(=O)c21
Reply: Yes

Ask: Queued: COCc1cc(=O)n2[nH]c(-c3cccc(Br)c3)cc2n1
Reply: Yes
